I'd be grateful if you could share measured clearance for these entries.
# MEASUREMENT NOTES: Clearance in Sprague-Dawley rat at 5 mg/kg, iv or 20 mg/kg, po measured up to 8 hrs post dose by LC/MS-MS analysis
# Format: ADME, organism-based
# REPORTED CONDITIONS: in vivo
Answers are plain numbers, in mL/min/kg.

Lab note: measured clearance of C[C@@]1(O)CC[C@H]2[C@H](CC[C@@H]3[C@@H]2CC[C@]2(C)[C@@H](C(=O)Cn4ccc(C#N)n4)CC[C@@H]32)C1 was 25

Your task in this section: give clearance for each listed record.
1. C[C@@]1(O)CC[C@H]2[C@H](CC[C@@H]3[C@@H]2CC[C@]2(C)[C@@H](C(=O)Cn4cccn4)CC[C@@H]32)C1
2. Cc1cnn(CC(=O)[C@H]2CC[C@H]3[C@@H]4CC[C@@H]5C[C@](C)(O)CC[C@@H]5[C@H]4CC[C@]23C)c1
3. Cc1cnn(CC(=O)[C@H]2CC[C@H]3[C@@H]4CC[C@@H]5C[C@](C)(O)CC[C@@H]5[C@H]4CC[C@]23C)n1
4. C[C@@]1(O)CC[C@H]2[C@H](CC[C@@H]3[C@@H]2CC[C@]2(C)[C@@H](C(=O)Cn4cc(C#N)cn4)CC[C@@H]32)C1

Result:
[28.3, 63.3, 50, 23.3]

Entry source: ChEMBL document CHEMBL4038335
